TARGET_OR_SYSTEM: Rhesus PDE2A3 (Macaca mulatta)
Sequence (B3VTJ2 1-941): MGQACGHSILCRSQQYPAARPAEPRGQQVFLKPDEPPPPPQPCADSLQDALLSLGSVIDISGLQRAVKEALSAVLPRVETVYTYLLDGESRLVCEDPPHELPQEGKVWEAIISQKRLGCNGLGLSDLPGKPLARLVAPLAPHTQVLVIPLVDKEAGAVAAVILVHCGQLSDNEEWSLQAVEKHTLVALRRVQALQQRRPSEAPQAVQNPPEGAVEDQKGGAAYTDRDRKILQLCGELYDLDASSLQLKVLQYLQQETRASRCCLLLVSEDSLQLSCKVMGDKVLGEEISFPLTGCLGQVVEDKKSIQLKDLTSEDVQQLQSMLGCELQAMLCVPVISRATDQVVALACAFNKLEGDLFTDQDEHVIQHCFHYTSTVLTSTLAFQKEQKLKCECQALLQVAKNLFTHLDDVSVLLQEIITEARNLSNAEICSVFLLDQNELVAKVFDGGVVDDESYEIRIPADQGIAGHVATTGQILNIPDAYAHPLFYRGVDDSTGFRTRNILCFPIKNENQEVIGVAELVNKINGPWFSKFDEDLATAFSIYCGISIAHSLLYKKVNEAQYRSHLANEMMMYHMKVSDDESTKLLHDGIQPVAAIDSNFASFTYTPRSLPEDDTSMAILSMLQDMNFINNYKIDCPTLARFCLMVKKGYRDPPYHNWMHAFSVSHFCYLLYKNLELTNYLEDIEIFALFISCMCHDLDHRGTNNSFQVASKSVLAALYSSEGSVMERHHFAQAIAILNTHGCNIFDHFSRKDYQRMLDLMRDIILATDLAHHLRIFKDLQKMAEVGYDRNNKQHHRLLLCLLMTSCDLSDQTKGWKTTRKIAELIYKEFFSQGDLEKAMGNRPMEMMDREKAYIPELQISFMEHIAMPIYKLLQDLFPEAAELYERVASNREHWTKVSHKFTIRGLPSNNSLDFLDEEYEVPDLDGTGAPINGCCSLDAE
ASSAY_PROTOCOL: PDE2 fluorescence polarization (IMAP FP) assay, rhesus PDE2A3
Type: biochemical, rhesus macaque
COND: Lab B, read-out: Rhesus PDE2 Ki (nM) Lab B
log10(Ki) reference
All values: base-10 log of Ki in nM.

For orientation, consider the following solved cases.
| COMPOUND | TARGET_OR_SYSTEM | log10(Ki) |
| --- | --- | --- |
| CC(C)C(c1ccc(C(F)(F)F)c(F)c1)n1nc(CF)c2c(=O)[nH]c(N(C)C)nc21 (single isomer, unassigned) [Example 220] | Rhesus PDE2A3 (Macaca mulatta) | -0.30 |
| N#CCc1nn(C(c2ccc(C(F)(F)F)cc2)C2CC2)c2nc(O)[nH]c(=O)c12 (single isomer, unassigned) [Example 296] | Rhesus PDE2A3 (Macaca mulatta) | 0.93 |
| CC(C)(C)C(c1ccc(C(F)(F)F)cc1)n1nc(CF)c2c(=O)[nH]c(O)nc21 (single isomer, unassigned) [Example 51] | Rhesus PDE2A3 (Macaca mulatta) | 2.09 |
| CC(C)c1ccc(C(C(C)C)n2nc(CO)c3c(=O)[nH]c(N(C)C)nc32)cc1 (single isomer, unassigned) [Example 78] | Rhesus PDE2A3 (Macaca mulatta) | -0.85 |
| CC(C)C(c1ccc(C(F)(F)F)cc1F)n1nc(CO)c2c(=O)[nH]c(N(C)C)nc21 (single isomer, unassigned) [Example 132] | Rhesus PDE2A3 (Macaca mulatta) | -1.23 |
| CC(C)c1ccc(C(C(C)C)n2nc(CF)c3c(=O)[nH]c(N(C)C)nc32)cc1 (single isomer, unassigned) [Example 176] | Rhesus PDE2A3 (Macaca mulatta) | -0.55 |
| CC(c1ccc(C(F)(F)F)c(F)c1)n1nc(CC(F)(F)F)c2c(=O)[nH]c(O)nc21 (single isomer, unassigned) [Example 234] | Rhesus PDE2A3 (Macaca mulatta) | 2.26 |
| CC(C)C(c1ccc(C(C)(F)F)c(F)c1)n1nc(CO)c2c(=O)[nH]c(N(C)C)nc21 (single isomer, unassigned) [Example 116] | Rhesus PDE2A3 (Macaca mulatta) | -0.80 |

Exercise: Any idea what its log10(Ki) is? The compound is O=c1[nH]c(O)nc2c1c(C(F)F)nn2C(c1ccc(C(F)(F)F)cc1)C1CC1 (single isomer, unassigned) [Example 280]
Key: 1.93

Exercise: Any idea what its log10(Ki) is? The compound is CC(c1ccc(C(F)(F)F)cc1F)n1nc(CF)c2c(=O)[nH]c(N(C)C)nc21 (single isomer, unassigned)
Key: -0.85

Exercise: Any idea what its log10(Ki) is? The compound is CC(C)C(c1ccc(C(C)(C)C)cc1)n1nc(CC(F)(F)F)c2c(=O)[nH]c(O)nc21 (single isomer, unassigned) [Example 260]
Key: 1.41

Exercise: Any idea what its log10(Ki) is? The compound is CN(C)c1nc2c(c(CO)nn2C(c2ccc(C(C)(F)F)cc2)C2CC2)c(=O)[nH]1 (single isomer, unassigned) [Example 140]
Key: -1.01

Exercise: Any idea what its log10(Ki) is? The compound is C[C@@H](c1ccc(C(F)(F)F)cc1)n1nc(CO)c2c(=O)[nH]c(N3CC(F)C3)nc21
Key: 0.28

Exercise: Any idea what its log10(Ki) is? The compound is CC(c1ccc(C(F)(F)F)c(F)c1)n1nc(CF)c2c(=O)[nH]c(N(C)C)nc21 (single isomer, unassigned) [Example 168]
Key: 0.91

Exercise: Any idea what its log10(Ki) is? The compound is CC(c1ccc(C(F)(F)F)c(F)c1)n1nc(CO)c2c(=O)[nH]c(N(C)C)nc21 (single isomer, unassigned) [Example 69]
Key: -0.57

Exercise: Any idea what its log10(Ki) is? The compound is CC(C)(C)C(c1ccc(C(F)(F)F)cc1)n1nc(CF)c2c(=O)[nH]c(O)nc21 (single isomer, unassigned) [Example 52]
Key: 2.96

Exercise: Any idea what its log10(Ki) is? The compound is CCC(c1ccc(C(C)(F)F)c(F)c1)n1nc(CF)c2c(=O)[nH]c(N(C)C)nc21 (single isomer, unassigned) [Example 217]
Key: -1.57

Exercise: Any idea what its log10(Ki) is? The compound is CC(C)C(c1ccc(C(F)(F)F)c(F)c1)n1nc(CC(F)(F)F)c2c(=O)[nH]c(O)nc21 (single isomer, unassigned) [Example 258]
Key: 1.00

Exercise: Any idea what its log10(Ki) is? The compound is CN(C)c1nc2c(c(CO)nn2C(c2ccc(CC(F)(F)F)cc2)C2CC2)c(=O)[nH]1 (single isomer, unassigned) [Example 86]
Key: -0.04

Exercise: Any idea what its log10(Ki) is? The compound is CN(C)c1nc2c(c(CO)nn2C(c2ccc(C(F)(F)F)cc2F)C2CC2)c(=O)[nH]1 (single isomer, unassigned) [Example 134]
Key: -1.30

Exercise: Any idea what its log10(Ki) is? The compound is O=c1[nH]c(O)nc2c1c(CC(F)(F)F)nn2C(c1ccc(C(F)(F)F)cc1)C1CC1 (single isomer, unassigned) [Example 227]
Key: 1.08

Exercise: Any idea what its log10(Ki) is? The compound is CC(C)C(c1ccc(C(F)(F)F)c(F)c1)n1nc(CO)c2c(=O)[nH]c(N(C)C)nc21 (single isomer, unassigned) [Example 143]
Key: -1.20

Exercise: Any idea what its log10(Ki) is? The compound is CC1(C(c2ccc(C(F)(F)F)cc2)n2nc(CC(F)(F)F)c3c(=O)[nH]c(O)nc32)CC1 (single isomer, unassigned) [Example 245]
Key: 2.84

Exercise: Any idea what its log10(Ki) is? The compound is CC(C)C(c1ccc(C(C)(F)F)cc1)n1nc(CF)c2c(=O)[nH]c(N(C)C)nc21 (single isomer, unassigned) [Example 207]
Key: -1.37

Exercise: Any idea what its log10(Ki) is? The compound is CC(C)C(c1ccc(C(C)(F)F)c(F)c1)n1nc(CF)c2c(=O)[nH]c(N(C)C)nc21 (single isomer, unassigned) [Example 219]
Key: -1.52

====

Ki reference
TARGET_OR_SYSTEM: UniProtKB B3VTJ2
ASSAY_PROTOCOL: PDE2 fluorescence polarization (IMAP FP) assay, rhesus PDE2A3
Format: biochemical, rhesus macaque
COND: Lab B, read-out: Rhesus PDE2 Ki (nM) Lab B
Give your result in nM as a bare value.

For orientation, consider the following solved cases.
| COMPOUND | READING_UNIT | Ki |
| --- | --- | --- |
| CC(c1ccc(C(F)(F)F)cc1)n1nc(C(F)(F)C(F)(F)F)c2c(=O)[nH]c(O)nc21 (single isomer, unassigned) [Example 266] | nM | 14 |
| CC(C)(C)c1ccc(C(C2CC2)n2nc(CC(F)(F)F)c3c(=O)[nH]c(O)nc32)cc1 (single isomer, unassigned) [Example 250] | nM | 26 |
| CC1(C(c2ccc(C(F)(F)F)cc2)n2nc(CC(F)(F)F)c3c(=O)[nH]c(O)nc32)CC1 (single isomer, unassigned) [Example 244] | nM | 21 |
| O=c1[nH]c(O)nc2c1c(CC(F)(F)F)nn2C(c1ccc(OC(F)(F)F)c(F)c1)C1CC1 (single isomer, unassigned) [Example 253] | nM | 120 |
| CN(C)c1nc2c(c(CO)nn2C(c2ccc(C(F)F)cc2)C2CC2)c(=O)[nH]1 (single isomer, unassigned) | nM | 0.28 |

Exercise: # returns recorded Ki (system: UniProtKB B3VTJ2) for C[C@@H](c1ccc(C(F)(F)F)cc1)n1nc(CO)c2c(=O)[nH]c(N(C)C)nc21
Key: 0.57

====

TARGET_OR_SYSTEM: human PDE2A1 (Homo sapiens (Human), UniProt O00408)
Sequence (O00408 other isoform, or with tags, fused parts or gaps): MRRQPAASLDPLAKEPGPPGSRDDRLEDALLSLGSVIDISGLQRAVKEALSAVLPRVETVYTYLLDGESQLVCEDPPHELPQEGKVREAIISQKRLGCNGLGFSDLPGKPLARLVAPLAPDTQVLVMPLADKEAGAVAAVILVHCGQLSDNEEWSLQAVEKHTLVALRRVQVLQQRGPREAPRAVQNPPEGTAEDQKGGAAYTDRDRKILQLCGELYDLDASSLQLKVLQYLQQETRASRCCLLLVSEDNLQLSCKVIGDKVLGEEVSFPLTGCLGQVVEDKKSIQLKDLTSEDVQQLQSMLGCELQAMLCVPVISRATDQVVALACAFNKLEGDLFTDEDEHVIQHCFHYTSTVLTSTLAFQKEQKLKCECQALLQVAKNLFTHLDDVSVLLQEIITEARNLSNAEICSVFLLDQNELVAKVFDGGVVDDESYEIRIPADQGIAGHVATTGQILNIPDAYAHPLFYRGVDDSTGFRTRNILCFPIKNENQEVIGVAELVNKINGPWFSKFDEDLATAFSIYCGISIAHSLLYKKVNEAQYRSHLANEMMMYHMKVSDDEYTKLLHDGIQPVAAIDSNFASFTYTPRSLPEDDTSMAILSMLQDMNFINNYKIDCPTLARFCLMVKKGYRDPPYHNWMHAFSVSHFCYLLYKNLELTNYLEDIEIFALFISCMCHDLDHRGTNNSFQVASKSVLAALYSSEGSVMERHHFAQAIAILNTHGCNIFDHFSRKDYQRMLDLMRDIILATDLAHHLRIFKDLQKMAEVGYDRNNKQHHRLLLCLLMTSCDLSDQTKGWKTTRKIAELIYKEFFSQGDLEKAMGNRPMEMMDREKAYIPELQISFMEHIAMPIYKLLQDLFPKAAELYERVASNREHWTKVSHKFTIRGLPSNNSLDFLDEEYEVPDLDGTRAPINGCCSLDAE
ASSAY_PROTOCOL: PDE selectivity IMAP FP assay, human PDE2A1
Type: biochemical
COND: Human PDE2; Lab B; read-out: Human PDE2 Ki (nM) Lab B
MEASURE_NAME: Ki (nM)
Give your result in nM as a bare value.

For orientation, consider the following solved cases.
| COMPOUND | Ki (nM) |
| --- | --- |
| CN(C)c1nc2c(c(CF)nn2C(c2ccc(C(F)(F)F)c(F)c2)C2CC2)c(=O)[nH]1 (single isomer, unassigned) [Example 180] | 1.2 |
| CC(C)C(c1ccc(C(F)(F)F)cc1F)n1nc(CO)c2c(=O)[nH]c(N(C)C)nc21 (single isomer, unassigned) [Example 132] | 0.04 |
| CC(c1ccc(C(F)(F)F)cc1F)n1nc(C(F)(F)F)c2c(=O)[nH]c(O)nc21 (single isomer, unassigned) [Example 306] | 330 |

Exercise: # returns recorded Ki (system: human PDE2A1 (Homo sapiens (Human), UniProt O00408)) for CC1(C(c2ccc(C(F)(F)F)cc2)n2nc(CO)c3c(=O)[nH]c(O)nc32)CC1 (single isomer, unassigned) [Example 4]
Key: 342

Exercise: # returns recorded Ki (system: human PDE2A1 (Homo sapiens (Human), UniProt O00408)) for CC(c1ccc(OC(F)(F)F)cc1)n1nc(CO)c2c(=O)[nH]c(N(C)C)nc21 (single isomer, unassigned) [Example 149]
Key: 0.51

Where do these numbers come from? They come from patent US10174037B2.
